- Target Of Assay: one or more of HDAC-4, HDAC-5, HDAC-6, HDAC-7, HDAC-8, HDAC-9, HDAC-10 and HDAC-11
- Assay Comment: Inhibition of histone deacetylase enzymatic activity (summary statement over isoforms)
- Measurement Conditions: Table 3, selected examples; HDAC isoform not given
List of IC50 values.

Sample answers from the record:
| Compound | IC50 |
| --- | --- |
| O=C(NO)C(c1ccccc1)c1ccc(OCc2cccc(C(F)(F)F)c2)cc1 (stereo not drawn) [Compound 3-71] | < 1000 nM |
| O=C(NO)C(c1ccccc1)[S+]([O-])c1ccccc1 (stereo not drawn) [Compound 5-6] | 1000 to 15000 nM |
| O=C(NO)C(c1ccccc1)c1ccc(-c2ccc(F)cc2)cc1 (stereo not drawn) [Compound 1-45] | < 1000 nM |

Q) Recorded IC50 of O=C(NO)C(c1ccccc1)c1ccc(N2CCN(c3ccc(F)cc3)CC2)cc1 (stereo not drawn) [Compound 3-84] , please.
A) < 1000 nM

Q) Okay, and O=C(NO)C(Oc1ccc2c(c1)CCC2)c1ccccc1 (stereo not drawn) [Compound 2-16] ?
A) 1000 to 15000 nM

Q) Okay, and COc1ccc(OC(C(=O)NO)c2ccccc2)cc1OC (stereo not drawn) [Compound 7-42] ?
A) 1000 to 15000 nM

Q) Okay, and O=C(NO)C(c1ccccc1)c1ccc(OCc2cccc(OC(F)(F)F)c2)cc1 (stereo not drawn) [Compound 3-86] ?
A) < 1000 nM

Q) Okay, and O=C(NO)C(c1ccccc1)c1ccc(-c2cccc3ccccc23)cc1 (stereo not drawn) [Compound 5-13] ?
A) < 1000 nM

Q) Okay, and O=C(NO)C(c1ccccc1)c1ccc(OCCN2CCOCC2)cc1 (stereo not drawn) [Compound 5-40] ?
A) < 1000 nM
